# Lookup of reported melting point keyed by entry

// known answers, use as guide
compound	melting point
CC(=O)CC(=O)Nc1ccc2nc(C)sc2c1	129 to 131 °C
Cc1nn(-c2ccccc2Cl)c2sc(C(=O)O)cc12	56 to 58 °C
O=C(NC(Cc1cccnc1)C(=O)O)c1ccccc1 (stereo not drawn)	176 to 178 °C

Query string: Look at this compound and give its reported melting point. COC(=O)c1cc(F)cc(OC)c1N
Result string: 66 to 68 °C

Query string: Then this compound: Cc1ccccc1-n1c(C)cc(C(=O)O)c1C
Result string: 127 to 129 °C

Query string: Then this compound: Cc1cc(C(=O)CCl)c(C)n1Cc1cccs1
Result string: 83 to 85 °C

Query string: Then this compound: Cc1cccc2sc(NC(=O)OCC(F)(F)F)nc12
Result string: 220 to 222 °C

Query string: Then this compound: NC(=O)NC(Cc1c[nH]c2ccccc12)C(=O)O (stereo not drawn)
Result string: 198 to 202 °C
